Reported values of log10 of TGI for individual entries
Tested on: MDA-MB-231 breast
Assay: NCI tumour cell line growth inhibition, 48 h
Quick note: numbers are log10 of TGI, with µM as the unit.

Exam item: Query (compound): COc1cccc2c1-c1ccccc1[C@H](Nc1ccccc1)[C@@]2(C)O ; field requested: log10 of TGI
Marked response: 1.39

Exam item: Need log10 of TGI, item OC1CCN(c2c3ccccc3nc3ccccc23)CC1
Marked response: 1.93

Exam item: Query: log10 of TGI; subject: CC(=O)OCC1OC(n2c(-c3ccc(C)cc3)cc(-c3ccco3)c(C#N)c2=S)C(OC(C)=O)C(OC(C)=O)C1OC(C)=O (stereo unspecified)
Marked response: 1.89

====

Reported values of TGI for individual entries
System: OVCAR-4 ovarian
Assay: NCI tumour cell line growth inhibition, 48 h

Reference set (3 entries):
{"columns": ["compound", "TGI"],
 "data": [
  ["Cn1ncc2c(Sc3ccc(Cl)cc3)ncnc21", "> 100 µM"],
  ["N#C/C(=N/Nc1nc[nH]c1C(N)=O)C(=O)Nc1ccccc1", "> 100 µM"],
  ["O=C(OC1CC(n2cc(F)c(=O)[nH]c2=O)OC1CSC(=O)c1ccccc1)c1ccccc1 (centres undefined)", "> 100 µM"]
]}

Exam item: Entry under review: O=C(Nc1ccccc1-c1nn(CO)c(=S)n(CO)c1=O)C(F)(F)F . Reported TGI?
Marked response: > 100 µM

Exam item: I have this compound here, CCC/C=C/C=C/C(=O)OC1C(C)C2(O)C3C=C(C)C(=O)C3CC(COC(C)=O)=CC2C2C(C)(C)C12OC(=O)C(C)C (centres undefined) , and I need its recorded TGI.
Marked response: 57.6 µM

Exam item: Quick one: TGI of C/C(=N\O)c1ccc2cc(Br)c3ccccc3c2c1 ?
Marked response: > 100 µM

Exam item: Reported TGI for O=[N+]([O-])c1cccnc1NCC1(CO)CCCC1 : what is it?
Marked response: > 100 µM

====

Listing: TGI of selected compounds
Tested on: HOP-62 NSCLC
Experiment: NCI tumour cell line growth inhibition, 48 h

Sample answers from the record:
{"columns": ["compound", "value"],
 "data": [
  ["CCOC(=O)c1nc2cc(C(F)(F)F)ccc2nc1Nc1cc(OC)c(OC)c(OC)c1", "> 100 µM"],
  ["CC(=O)OCC1OC(n2c(-c3ccc(C)cc3)cc(-c3ccco3)c(C#N)c2=S)C(OC(C)=O)C(OC(C)=O)C1OC(C)=O (stereo unspecified)", "> 100 µM"],
  ["NCCOc1ncccc1/C=C1\\c2ccccc2-c2ccc(F)cc21", "1.87 µM"],
  ["O=C1/C(=C/c2ccc(Cl)cc2)COc2ccc(O)cc21", "22.5 µM"],
  ["CCOc1ccccc1NC(=O)CC1Sc2ccccc2NC1=O (stereo unspecified)", "> 100 µM"]
]}

Kindly review the next compound as well.
Exam item: Endpoint output: TGI of COc1cc(Br)cc2cc(C3=CSC4=NCCN34)c(=O)oc12 . Value?
Marked response: 34.9 µM

====

Test system: NCI-H522 lung
Assay: NCI tumour cell line growth inhibition, 48 h
property: TGI (µM)
Could you give me the number in µM? Just the number is fine.

Exam item: Recall the recorded TGI for CC(C)(C)c1ccc(C(=O)Nc2sc3c(c2C#N)CCC(=O)C3)cc1 with NCI-H522 lung and state it.
Marked response: 1.36

Exam item: Look up TGI with NCI-H522 lung for this compound: O=C(CCl)Nc1ccc2c(c1)C(=O)c1ccccc1C2=O
Marked response: 1.22

Exam item: # returns recorded TGI (system: NCI-H522 lung) for Cc1cc(C)c(-c2cc(O)c(-c3c(C)cc(C)cc3C)cc2O)c(C)c1
Marked response: 4.46

Exam item: Can you look up TGI on NCI-H522 lung for O=C(Oc1cccc2cccnc12)c1cc2cc(CCl)ccc2oc1=O ?
Marked response: 8.87

Exam item: Which TGI is reported with NCI-H522 lung for this entry: CCCCCCCCc1cc[n+](CC(=O)c2ccc(Br)cc2)cc1 ?
Marked response: 2.26

====

A collection of molecules and their measured TGI
Tested on: PC-3 prostate
Experiment: NCI tumour cell line growth inhibition, 48 h

Exam item: For COc1ccc2c(c1)CC[C@@H]1[C@@H]2CC[C@]2(C)C(=O)/C(=C/c3ccc(C#N)cc3)C[C@@H]12 , what is its reported TGI?
Marked response: > 100 µM

Exam item: What does the record list as TGI for CCN1CCC(Oc2c(C#N)ncc3[nH]c4ncccc4c23)CC1 ?
Marked response: > 50 µM

Exam item: Consider the molecule O=C(O)c1cc2ccccc2c(N=Nc2ccc(S(=O)(=O)O)cc2)c1O and give its measured TGI.
Marked response: > 100 µM

Exam item: Quick one: TGI of Cc1c(-c2ccccc2)c(C#N)c2nnn(-c3ccc([N+](=O)[O-])cc3)c(=O)n12 ?
Marked response: 9.54 µM

Exam item: I have this molecule here, Cc1cc(-c2ncc(-c3cccnc3)cc2/C=C/c2ccccc2)cnc1-c1cccnc1 , and I need its recorded TGI.
Marked response: > 100 µM

Exam item: Entry CC(C)CCNc1ncnc2[nH]ncc12 : reported TGI = ?
Marked response: > 100 µM

Exam item: Which TGI is listed for CCC(Cc1cnc2nc(N)nc(N)c2n1)c1ccc(C(=O)NC(CCC(=O)O)C(=O)O)cc1 (stereo unspecified) ?
Marked response: > 100 µM

====

TGI: recorded values
Test system: LOX IMVI melanoma
Assay: NCI tumour cell line growth inhibition, 48 h

As a guide, the following entries are already answered.
{"columns": ["molecule", "property", "value"],
 "data": [
  ["c1ccc(-c2c(-c3ccccc3)[n+](Cc3ccc4ccccc4c3)c(-c3cccc4ccccc34)n2Cc2ccc3ccccc3c2)cc1", "TGI", "0.496 µM"],
  ["O=C1/C(=C/c2ccc(Cl)cc2)COc2ccc(O)cc21", "TGI", "3.18 µM"]
]}

Exam item: Would you kindly share the measured TGI for CC(C)C1CNC2N1C(=O)C2(C)OCc1ccccc1 (stereo not given) ?
Marked response: > 100 µM

Exam item: Given the entry O=C(OC1CC(n2cc(F)c(=O)[nH]c2=O)OC1CSC(=O)c1ccccc1)c1ccccc1 (stereo not given) , report its measured TGI.
Marked response: > 100 µM

====

Tested on: CCRF-CEM leukemia
Assay: NCI tumour cell line growth inhibition, 48 h; in the data active = GI50 below about 0.43 µM; inactive = the rest
# valid calls are yes (active), no (inactive); nothing else

Observe how each entry below is paired with its result.
{"columns": ["compound", "discrete label"],
 "data": [
  ["O=C(NCCCCNC(=O)OCc1ccc2c(Cl)cc(Cl)c(O)c2n1)OCc1ccc2c(Cl)cc(Cl)c(O)c2n1", "yes"],
  ["Clc1ccc(CCC(Cn2ccnc2)Sc2c(Cl)cccc2Cl)cc1 (centres undefined)", "no"],
  ["Cn1cc(-c2nc3c(F)cc4[nH]ncc4c3c3c2CCCC3)c(C(F)(F)F)n1", "no"],
  ["C=C(C)C(=O)Oc1ccc(N=Nc2ccc(C)cc2)ccc1=O", "no"],
  ["O=C(CCl)Nc1ccc2c(c1)C(=O)c1ccccc1C2=O", "no"],
  ["COc1cc(-c2n[nH]nc2-c2ccc3c(c2)OCCO3)cc(OC)c1OC", "yes"]
]}

Exam item: Hey, what did the test say about Cc1cc2c([nH]1)CSc1cc(S(=O)(=O)c3ccccc3)c(=O)[nH]c1-2 ?
Marked response: no

Exam item: Would you mind telling me which call this test gave C[C@@]12C(=O)OC(=O)[C@]1(C)[C@H]1CC[C@@H]2O1 ?
Marked response: no

Exam item: Please indicate how the test categorized COc1ccc2nc(NNC(=O)c3cnccn3)c3cccn3c2c1 .
Marked response: yes

====

System: U251 CNS
Experiment: NCI tumour cell line growth inhibition, 48 h
property: TGI (µM)
Response body: numeric value in µM, unit text excluded.

Examples with their reported TGI follow.
{"columns": ["compound", "TGI [µM]"],
 "data": [
  ["CCCCCCCCc1cc[n+](CC(=O)c2ccc(Br)cc2)cc1", 2.79],
  ["CC[C@@]1(O)C[C@H](OC2CC(N(C)C)C(OC3CC(O)C(OC4CC(O)C(O)C(C)O4)C(C)O3)C(C)O2)c2c(cc3c(c2O)C(=O)c2c(O)ccc(O)c2C3=O)[C@H]1C(=O)OC (stereo partly specified)", 3.18],
  ["Cc1c(-c2ccccc2)c(C#N)c2nnn(-c3ccc([N+](=O)[O-])cc3)c(=O)n12", 21.5],
  ["C/C(=N\\O)c1ccc2cc(Br)c3ccccc3c2c1", 28.7],
  ["COc1cc(-c2nc3ccccc3s2)ccc1OCCCCCOc1cc2c(cc1OC)C(=O)N1CCC[C@H]1C=N2", 7.14]
]}

Please look at the following compound next.
Exam item: // TGI lookup, key: N#C/C(=C\c1cc(F)cc(F)c1)c1ccccn1
Marked response: 40
